Give pEC50 for every item shown.
# Test system: Human immunodeficiency virus 1
# Procedure Text: Antiviral activity against HIV1 3B infected in human MT2 cells assessed as inhibition of viral replication by p24 antigen assay
# Assay type: functional, organism-based
# Run Conditions: Human immunodeficiency virus 1, 3B
One number for each entry, as −log10 of the molar value.

Each of the following entries comes with a recorded value; kindly state pEC50 for each.
1. Cc1cc(I)cc(C)c1Oc1ccc([N+](=O)[O-])c(Nc2ccc(C#N)cc2)n1
2. Cc1cc(CO)cc(C)c1Oc1ccc([N+](=O)[O-])c(Nc2ccc(C#N)cc2)n1
3. Cc1cccc(C)c1Oc1ccc([N+](=O)[O-])c(Nc2ccc(C#N)cc2)n1
4. Cc1cc(C)c(Oc2ccc(N)c(Nc3ccc(C#N)cc3)n2)c(C)c1

Marked response:
[5.61, 6.72, 5.99, 7.24]
